As shown below, each of these compounds has a reported growth at 10 µM value.
Tested on: A549
Experiment: Antiproliferative activity against human A549 cells assessed as cell growth at 10 uM incubated for 72 hrs by MTT assay relative to untreated control
Assay type: functional
Conditions: A549, 72 h, read-out: Activity
Report as a plain number; the unit % is understood.

Below, 3 compounds whose answers are already recorded.
| Compound | Study system | growth at 10 µM, % |
| --- | --- | --- |
| COc1ccc(C2CC(c3ccc4ccccc4c3)=NN2C2=NC(=O)/C(=C3/C(=O)Nc4ccc(Cl)cc43)S2)cc1 (centres undefined) | A549 | 3.84 |
| COc1ccc(C2CC(c3ccc4ccccc4c3)=NN2C2=NC(=O)/C(=C3/C(=O)Nc4c(C)cc(C)cc43)S2)cc1 (centres undefined) | A549 | 43.8 |
| COc1ccc(C2CC(c3cccs3)=NN2C2=NC(=O)/C(=C3/C(=O)Nc4c(C)cc(C)cc43)S2)cc1 (centres undefined) | A549 | 104 |

Let us move to another entry and its growth at 10 µM.
q: Look up growth at 10 µM of COc1ccc(C2CC(c3ccc4ccccc4c3)=NN2C2=NC(=O)/C(=C3/C(=O)Nc4ccc(OC)cc43)S2)cc1 (centres undefined) and report it.
a: 3.93

====

Tested on: SK-OV-3
Assay: Antiproliferative activity against human SKOV3 cells assessed as reduction in cell growth incubated for 72 hrs by MTT assay
Type: functional, cell-based
Details: SK-OV-3, 72 h
Experimental endpoint: pEC50
Quick note: pEC50 values are minus log10 of concentrations in mol/L.

| Compound | pEC50 |
| --- | --- |
| CCN(CC)CCNC(=O)c1c(C)[nH]c(/C=C2\C(=O)Nc3ccc(F)cc32)c1C | 5.87 |

q: Give the measured pEC50 for COc1ccc(C2CC(c3ccc4ccccc4c3)=NN2C2=NC(=O)/C(=C3/C(=O)Nc4ccc(Cl)cc43)S2)cc1 (configuration not stated)
a: 7.22

====

Assay: Antiproliferative activity against human NHFB cells assessed as cell growth at 10 uM incubated for 72 hrs by MTT assay relative to untreated control
Format: cell-based
Settings: read-out: Activity
Experimental endpoint: viability at 72 h, 10 µM (%)
The response must be a number in % with no trailing unit.

Below, 3 molecules whose answers are already recorded.
| Molecule | Experimental endpoint | Numeric readout |
| --- | --- | --- |
| COc1ccc(C2CC(c3cccs3)=NN2C2=NC(=O)/C(=C3/C(=O)Nc4ccc(C)cc43)S2)cc1 (configuration not stated) | viability at 72 h, 10 µM | 48.3 |
| COc1ccc(C2CC(c3ccc4ccccc4c3)=NN2C2=NC(=O)/C(=C3/C(=O)Nc4ccc(Cl)cc43)S2)cc1 (configuration not stated) | viability at 72 h, 10 µM | 14.4 |
| COc1ccc(C2CC(c3cccs3)=NN2C2=NC(=O)/C(=C3/C(=O)Nc4ccc(Cl)cc43)S2)cc1 (configuration not stated) | viability at 72 h, 10 µM | 47.5 |

q: Kindly indicate its recorded viability at 72 h, 10 µM. Item: COc1ccc(C2CC(c3ccc4ccccc4c3)=NN2C2=NC(=O)/C(=C3/C(=O)Nc4c(C)cc(C)cc43)S2)cc1 (configuration not stated)
a: 55.6

====

Tested on: BT-474
Assay: Antiproliferative activity against human BT474 cells assessed as reduction in cell growth incubated for 72 hrs by MTT assay
Assay type: functional, cell-based
Details: BT-474, 72 h
Experimental endpoint: EC50
Reply with the number, then its unit.

Some solved cases for reference:
| Compound | EC50 |
| --- | --- |
| COc1ccc(C2CC(c3ccc4ccccc4c3)=NN2C2=NC(=O)/C(=C3/C(=O)Nc4ccc(Cl)cc43)S2)cc1 (stereo not drawn) | 90 nM |
| CCN(CC)CCNC(=O)c1c(C)[nH]c(/C=C2\C(=O)Nc3ccc(F)cc32)c1C | 900 nM |

Let's switch to this compound now.
q: State its EC50 for this compound: COc1ccc(C2CC(c3ccc4ccccc4c3)=NN2C2=NC(=O)/C(=C3/C(=O)Nc4ccc(OC)cc43)S2)cc1 (stereo not drawn)
a: 240 nM
